Tested on: TK-10 renal
Experiment: NCI-60 one-dose screen, 48 h (100 = growth as untreated, 0 = no growth, -100 = all killed)
Settings: 10 µM unless noted
Compounds without any hit were thinned out: in the full panel of roughly 83,000, 20% have a hit.
Catalogue of growth values

{"columns": ["Structure Notation", "growth [%]"],
 "data": [
  ["CCCCCCNC(=O)Oc1ccc(/C(=C(\\C)c2ccc(Cl)cc2)c2ccc(OCCN(C)C)cc2)cc1", 88.9],
  ["C#Cc1ccc(NC(=O)c2ccc(/C=C/C(=O)c3nccn3C)cc2)c(F)c1", 89.4],
  ["Cc1ccc(/C=C/c2nn3c(-c4ccco4)nnc3s2)cc1", 87.9]
]}
